- tested.system: SARM1 (50-724) (Homo sapiens, UniProt Q6SZW1)
- experiment.description: biochemical
metric: IC50

compound	obs.value
Cc1c(F)cccc1S(=O)(=O)Nc1cccc(N2CCN(C)C2=O)c1	> 1000 nM
Cc1n[nH]c(=O)c2cc(N[C@@H](C)c3nc(Cl)c(Cl)s3)ccc12 (single isomer, unassigned) [Example 239A]	< 100 nM
O=C1NC(CO)CCc2ccc(NS(=O)(=O)c3cccc(Cl)c3Cl)cc21 (single isomer, unassigned) [Compound 304B]	500 to 1000 nM
CC(Nc1ccc2nc[nH]c(=O)c2n1)c1c(F)ccc(Cl)c1Cl (racemic) [Compound 349]	< 100 nM
O=S(=O)(Nc1ccc2ccccc2n1)c1cccc(Cl)c1Cl	> 1000 nM
CC(Nc1cc(F)c2ncn(-c3nncs3)c(=O)c2c1)c1nc(Cl)c(Cl)s1 (racemic)	< 100 nM
O=C1NCCc2ccc(NS(=O)(=O)c3cccc(F)c3Cl)cc21	100 to 500 nM
CC(Nc1ccc2c(c1)NC(=O)C21CC1)c1nc(Cl)c(Cl)s1 (racemic)	< 100 nM

====

- tested.system: SARM1 (50-724) (Homo sapiens, UniProt Q6SZW1)
- experiment.description: biochemical
Consider the following molecules and their measured IC50 readings.
metric: IC50

molecule	metric	obs.value
Cc1nc(C(C)Nc2ccc3c(C)n(CC(N)=O)nc3c2)sc1Cl (racemic) [Compound 343]	IC50	< 100 nM
CC(Nc1cc(F)c2ncn(CC(N)=O)c(=O)c2c1)c1ccc(F)c(Cl)c1Cl (racemic) [Compound 351]	IC50	< 100 nM
CC(Nc1ccc2c(c1)C(=O)NC2(C)C)c1nc(Cl)c(Cl)s1 (racemic) [Compound 278]	IC50	< 100 nM
Cc1nc(C(C)Nc2ccc3c(C)n(CC(N)=O)nc3c2)sc1Cl (single isomer, unassigned) [Compound 362]	IC50	< 100 nM

====

- tested.system: SARM1 (50-724) (Homo sapiens, UniProt Q6SZW1)
- Sequence (Q6SZW1 50-724): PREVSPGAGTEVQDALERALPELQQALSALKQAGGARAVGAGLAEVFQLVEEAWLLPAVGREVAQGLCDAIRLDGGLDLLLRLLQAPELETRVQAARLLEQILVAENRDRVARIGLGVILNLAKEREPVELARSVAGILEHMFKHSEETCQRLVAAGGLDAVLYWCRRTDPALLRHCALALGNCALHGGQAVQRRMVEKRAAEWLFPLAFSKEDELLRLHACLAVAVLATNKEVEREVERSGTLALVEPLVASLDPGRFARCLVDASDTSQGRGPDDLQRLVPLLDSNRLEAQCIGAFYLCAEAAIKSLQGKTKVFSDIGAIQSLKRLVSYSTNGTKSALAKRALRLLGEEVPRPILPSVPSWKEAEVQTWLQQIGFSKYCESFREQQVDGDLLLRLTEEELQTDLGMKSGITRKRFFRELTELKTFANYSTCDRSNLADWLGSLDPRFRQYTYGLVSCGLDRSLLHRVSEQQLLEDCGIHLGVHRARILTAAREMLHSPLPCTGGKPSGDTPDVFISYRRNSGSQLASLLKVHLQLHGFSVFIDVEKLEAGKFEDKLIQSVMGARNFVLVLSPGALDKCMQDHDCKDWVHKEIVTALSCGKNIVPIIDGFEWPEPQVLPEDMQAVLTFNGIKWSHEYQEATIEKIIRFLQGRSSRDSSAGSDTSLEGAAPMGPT
- experiment.description: biochemical
pIC50: −log10 of the molar value.

compound	pIC50
Cc1c[nH]c(=O)c2cc(NS(=O)(=O)c3cccc(Cl)c3Cl)ccc12	> 7.00
O=C1Nc2cc(NS(=O)(=O)c3cccc(Cl)c3Cl)ccc2C12CCCC2	> 7.00
Cc1n[nH]c2cc(NC(C)c3nc(Cl)c(Cl)s3)ccc12 (racemic)	> 7.00
CC(Nc1ccc2ccc(=O)[nH]c2c1)c1nc(Cl)c(Cl)s1 (racemic)	> 7.00
CC(Nc1ccc2cc[nH]c(=O)c2c1)c1cc(F)cc(F)c1Cl (racemic)	> 7.00
Cc1cc(F)cc(S(=O)(=O)Nc2ccc3c(c2)C(=O)NCC3)c1 [Example 15A]	< 6.00
Cc1cnc2cc(NS(=O)(=O)c3cccc(Cl)c3Cl)ccc2c1	> 7.00
O=S(=O)(Nc1cc(F)c2cn[nH]c2c1)c1cccc(Cl)c1Cl	6.30 to 7.00
CC(Nc1ccc2c(c1)C(=O)NCC2)c1cc(Cl)nc(Cl)c1 (racemic)	< 6.00
COc1ccc(NS(=O)(=O)c2cccc(Cl)c2Cl)cc1C(N)=O	6.30 to 7.00
CC(Nc1ccc2cc[nH]c(=O)c2c1)c1cc(F)ccc1Cl (racemic)	> 7.00
Cc1cc(F)cc(C2(Nc3ccc4c(c3)C(=O)N(C)CC4)COC2)c1	< 6.00
O=S(=O)(Nc1cc2ccccc2cn1)c1cccc(Cl)c1Cl	6.30 to 7.00
Cc1n[nH]c2cc(NS(=O)(=O)c3cccc(Cl)c3Cl)ccc12	> 7.00
CC1(C)C(=O)N(CC(=O)O)c2cc(NS(=O)(=O)c3cccc(Cl)c3Cl)ccc21	> 7.00
Cc1cc(S(=O)(=O)Nc2ccc(CC(N)=O)cc2)c(F)cc1F	< 6.00
CC(Nc1ccc2c(c1)C(=O)NCC2)c1cccc(Cl)c1Cl (racemic) [Example 100]	6.30 to 7.00
Cn1c(C(N)=O)nc2cc(NS(=O)(=O)c3cccc(Cl)c3Cl)ccc21	6.30 to 7.00
